Reference source for all entries: patent US12514928B2

- assay overview: Caco-2 permeability of ADC payload
- Assay type: in vitro ADME
- condition summary: human, payload at 10 μM, 2 hours, head incomplete (column between A-B and ER)
property name: Papp B→A at 2 h, 10 μM
Just the number plus its unit, please.

{"compound": "CO[C@H]([C@@H](C)[C@H]1O[C@]1(C)C[C@H](C)/C=C/C=C(\\C)[C@H]1O[C@@H](CC(=O)O)C[C@@H](OC(=O)N2CCNCC2)[C@@H]1C)[C@@H](C)O [Compound H1]", "property name": "Papp B→A at 2 h, 10 μM", "experimental value": "0.334 ×10⁻⁶ cm/s"}

Then there is this compound:
Papp B→A at 2 h, 10 μM in this record for CO[C@H]([C@@H](C)[C@H]1O[C@]1(C)C[C@H](C)/C=C/C=C(\C)[C@H]1O[C@@H](CNC(=O)CCCCCOC(=O)N2CCNCC2)CC[C@@H]1C)[C@@H](C)O [Compound H5] : 23.6 ×10⁻⁶ cm/s

----------
- assay overview: Caco-2 permeability of ADC payload
- Type: in vitro ADME
- condition summary: human, efflux ratio, B-A/A-B, read-out: ER
property name: efflux ratio at 2 h, 10 μM
Could you respond with only the numeric value?

{"compound": "CO[C@H]([C@@H](C)[C@H]1O[C@]1(C)C[C@H](C)/C=C/C=C(\\C)[C@H]1O[C@@H](CNC(=O)CCCCCOC(=O)N2CCNCC2)CC[C@@H]1C)[C@@H](C)O [Compound H5]", "efflux ratio at 2 h, 10 μM": 22.7}

efflux ratio at 2 h, 10 μM in this record for CO[C@H]([C@@H](C)[C@H]1O[C@]1(C)C[C@H](C)/C=C/C=C(\C)[C@H]1O[C@@H](CC(=O)O)C[C@@H](OC(=O)N2CCNCC2)[C@@H]1C)[C@@H](C)O [Compound H1] : 1.27

----------
- System: NCI-N87 gastric cancer cells
- assay overview: Payload cell viability dose response (CellTiter-Glo 2.0), NCI-N87 (Example 4)
- Assay type: cell-based, human
- condition summary: NCI-N87, 144 h
property name: CTG 144 h Rmin (%)
Give your result in % as a bare value.

{"entry smiles": "CO[C@H]([C@@H](C)[C@H]1O[C@]1(C)C[C@H](C)/C=C/C=C(\\C)[C@H]1O[C@@H](CC(=O)N[C@@H](CCCOC(=O)N2CCN(C)CC2)C(=O)O)CC[C@@H]1C)[C@@H](C)O", "CTG 144 h Rmin [%]": "−65.458"}
{"entry smiles": "COC(=O)[C@H](CCNC(=O)N1CCN(C)CC1)NC(=O)C[C@H]1CC[C@H](C)[C@@H](/C(C)=C/C=C/[C@@H](C)C[C@@]2(C)O[C@@H]2[C@H](C)[C@@H](OC)[C@@H](C)O)O1", "CTG 144 h Rmin [%]": "−86.757"}
{"entry smiles": "COC(=O)[C@@H](CCCCNC(=O)C[C@H]1CC[C@H](C)[C@@H](/C(C)=C/C=C/[C@@H](C)C[C@@]2(C)O[C@@H]2[C@H](C)[C@@H](OC)[C@@H](C)O)O1)NC(=O)N1CCN(C)CC1", "CTG 144 h Rmin [%]": "−94.539"}

Entry CO[C@H]([C@@H](C)[C@H]1O[C@]1(C)C[C@H](C)/C=C/C=C(\C)[C@H]1O[C@@H](CC(=O)N[C@@H](CCNC(=O)N2CCN(C)CC2)C(=O)O)CC[C@@H]1C)[C@@H](C)O , tested on NCI-N87 gastric cancer cells, has a reported CTG 144 h Rmin of −82.661

Entry CO[C@H]([C@@H](C)[C@H]1O[C@]1(C)C[C@H](C)/C=C/C=C(\C)[C@H]1O[C@@H](CC(=O)N[C@@H](COC(=O)N2CCN(C)CC2)C(=O)O)CC[C@@H]1C)[C@@H](C)O , tested on NCI-N87 gastric cancer cells, has a reported CTG 144 h Rmin of −80.613
